system: HPV-16; assay: qPCR sensitivity against HPV-HNSCC tumor samples diluted among 10 ng normal human DNA; conditions: Sample # 29
READOUT_KIND: Threshold of tumor cell numbers for HPV-16 detection
Param answer (str): number followed by unit.

Return the recorded Threshold of tumor cell numbers for HPV-16 detection value; entry: HR E5L2-4: primer/probe set for junction between E5 and L2, SEQ ID NO: 55-57 (same as SEQ ID NO: 4-6) (nucleic acid, chemistry not given here) DNA 1: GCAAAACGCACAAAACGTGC DNA 2: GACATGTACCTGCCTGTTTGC DNA 3: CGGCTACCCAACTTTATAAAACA
3.0 tumor cells

Return the recorded Threshold of tumor cell numbers for HPV-16 detection value; entry: E7: previously designed (historical) HPV-16 E7 primers and Taqman probe, SEQ ID NO: 10-12; part of CLIA test (nucleic acid, Taqman probe, labels not given here, part of CLIA test) DNA 1: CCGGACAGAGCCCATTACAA DNA 2: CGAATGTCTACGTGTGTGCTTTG DNA 3: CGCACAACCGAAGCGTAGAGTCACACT
3.0 tumor cells
